Target: SDS-activated 20S proteasome from rabbit muscle (Oryctolagus cuniculus, UniProt G1SU71+G1T4Q9)
Assay: Kinetic assay: inhibition of the 20S proteasome
Format: biochemical
Conditions: Table III; dipeptide boronic acid vs dipeptide aldehyde
Experimental: P, AA^1, AA^2, AA^3, and Z^1 and Z^2 represent the structures present on formula (1) or (2). The protocol for the kinetic assay described in Tables II-V is as described in Rock et al., Cell 78:761-771 (1994). In these tables, Ki values are reported, which are dissociation constants for the equilibrium that is established when enzyme and inhibitor interact to form the enzyme:inhibitor complex. The reactions were performed using SDS-activated 20S proteasome from rabbit muscle. […]
QUANTITY_MEASURED: Ki (µM)
Number in µM, nothing else.

Problem: # Ki lookup, item CC(C)C[C@@H](C=O)NC(=O)[C@H](CC(C)C)NC(=O)OCc1ccccc1 [MG-105, reference compound]
Solution: 15
